# Subject Of Test: NS5B polymerase (Hepatitis C virus genotype 1b, UniProt P26663)
# Sequence (P26663 2420-3010): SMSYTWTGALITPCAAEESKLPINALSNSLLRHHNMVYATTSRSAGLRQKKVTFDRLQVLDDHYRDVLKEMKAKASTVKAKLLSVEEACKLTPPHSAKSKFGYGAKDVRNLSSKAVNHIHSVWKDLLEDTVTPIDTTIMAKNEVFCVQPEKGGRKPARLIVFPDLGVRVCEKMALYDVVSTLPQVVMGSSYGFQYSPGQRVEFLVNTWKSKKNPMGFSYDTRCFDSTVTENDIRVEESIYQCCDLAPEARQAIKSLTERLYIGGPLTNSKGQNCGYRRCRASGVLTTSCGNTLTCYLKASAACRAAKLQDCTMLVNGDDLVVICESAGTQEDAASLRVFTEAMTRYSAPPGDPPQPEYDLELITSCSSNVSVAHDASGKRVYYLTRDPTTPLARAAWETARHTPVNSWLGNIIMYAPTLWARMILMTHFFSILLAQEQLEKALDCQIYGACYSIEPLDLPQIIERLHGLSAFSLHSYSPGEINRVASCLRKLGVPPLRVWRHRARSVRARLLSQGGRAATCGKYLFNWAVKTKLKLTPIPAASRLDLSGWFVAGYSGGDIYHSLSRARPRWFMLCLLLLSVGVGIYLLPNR
pIC50: −log10 of the molar value.
Catalogue of pIC50 values
Result Type: pIC50

Compound	Result
CC(C)CCN1C(=O)C(C2=NS(=O)(=O)c3cc(NS(C)(=O)=O)ccc3N2)=C(O)C2CCCN21 (centres unmarked)	> 7.70
CS(=O)(=O)Nc1ccc2c(c1)S(=O)(=O)N=C(C1=C(O)[C@]34C[C@H]3CCN4N(Cc3ccc(F)cc3)C1=O)N2	6.70 to 7.70
CC(C)(C)CCN1C(=O)C(C2=NS(=O)(=O)c3cc(NS(C)(=O)=O)ccc3N2)=C(O)C2(C)CCCN12 (centres unmarked)	6.70 to 7.70
CS(=O)(=O)Nc1ccc2c(c1)S(=O)(=O)N=C(C1=C(O)C3CCCCN3N(Cc3ccc(F)cc3)C1=O)N2 (centres unmarked)	> 7.70
CC(C)(C)CCN1C(=O)C(C2=NS(=O)(=O)c3cc(NS(C)(=O)=O)ccc3N2)=C(O)C2CCCN21 (centres unmarked)	> 7.70
CS(=O)(=O)Nc1ccc2c(c1)S(=O)(=O)N=C(C1=C(O)[C@@H]3C4CCC(CC4)N3N(Cc3ccc(F)cc3)C1=O)N2	6.70 to 7.70
CN1N(CCC(C)(C)C)C(=O)C(C2=NS(=O)(=O)c3cc(NS(C)(=O)=O)ccc3N2)=C(O)C12CCCC2	5.52 to 6.70
CS(=O)(=O)Nc1ccc2c(c1)S(=O)(=O)N=C(C1=C(O)C3CC4CCCC4N3N(C3CCCCC3)C1=O)N2 (single isomer, unassigned) [10 Isomer 1]	5.52 to 6.70
CS(=O)(=O)Nc1ccc2c(c1)S(=O)(=O)N=C(C1=C(O)C3C4CCC(C4)N3N(Cc3ccc(F)cc3)C1=O)N2 (centres unmarked)	> 7.70
CC(C)(C)CCN1C(=O)C(C2=NS(=O)(=O)c3cc(NS(C)(=O)=O)ccc3N2)=C(O)C2CCCCN21 (centres unmarked)	6.70 to 7.70
CS(=O)(=O)Nc1ccc2c(c1)S(=O)(=O)N=C(C1=C(O)C3CCCN3N(Cc3ccc(F)cc3)C1=O)N2 (centres unmarked)	> 7.70
